# assayDetails: Permeability across human Caco2 cells
# Type: ADME, cell-based
# experimentalSetup: Caco-2, read-out: permeability
measure: Papp (×10⁻⁶ cm/s)

>>> df
                                 smilesrepr  measure  reportedresult
0  O=C(Nc1ccc(O)cc1OC[C@@H](O)CN1CCC2(CC1)Cc1cc(Cl)ccc1O2)NC1CC1     Papp            2.67
1  O=C1COc2cccc(OC[C@@H](O)CN3CCC4(CC3)Cc3cc(Cl)ccc3O4)c2N1     Papp              11
2  NC(=O)Nc1ccc(O)cc1OC[C@@H](O)CN1CCC2(CC1)Cc1cc(Cl)ccc1O2     Papp             0.5

I: O=C(Nc1ccc(O)cc1OC[C@@H](O)CN1CCC2(CC1)Cc1cc(F)ccc1O2)NC1CC1
II: CNC(=O)Nc1ccc(O)cc1OC[C@@H](O)CN1CCC2(CC1)Cc1cc(Cl)ccc1O2
// query Form field 'greater Papp' accepts I or II ; which applies? Select an item and report its label.
// result II
(II: 9 ×10⁻⁶ cm/s, I: 0.93 ×10⁻⁶ cm/s)

A: NC(=O)Nc1ccccc1OC[C@@H](O)CN1CCC2(CC1)Cc1cc(Cl)ccc1O2
B: O=C(Nc1ccccc1OC[C@@H](O)CN1CCC2(CC1)Cc1cc(Cl)ccc1O2)N1CCCC1
// query Form: Entry with minimum Papp (choose one): A / B Select an item and report its label.
// result B

* * *

# systemName: UniProtKB P32246
# Sequence (P32246 whole entry): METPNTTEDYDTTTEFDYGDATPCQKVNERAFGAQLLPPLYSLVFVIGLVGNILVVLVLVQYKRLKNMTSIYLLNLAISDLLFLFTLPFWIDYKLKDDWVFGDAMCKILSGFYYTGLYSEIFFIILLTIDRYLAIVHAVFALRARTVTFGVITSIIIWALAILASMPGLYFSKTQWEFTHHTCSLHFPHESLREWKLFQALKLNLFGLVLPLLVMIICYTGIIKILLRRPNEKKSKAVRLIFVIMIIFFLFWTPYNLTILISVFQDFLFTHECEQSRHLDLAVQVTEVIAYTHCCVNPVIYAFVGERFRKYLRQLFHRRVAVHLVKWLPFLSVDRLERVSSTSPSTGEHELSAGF
# assayDetails: Displacement of [125I]MIP-1alpha from human recombinant CCR1 expressed in HEK293 cell membranes after 1.5 hrs by microbeta counting analysis
measure: IC50 (nM)

                                 smilesrepr        systemname  resultunit  reportedresult
0  O=C1CCc2cccc(OC[C@@H](O)CN3CCC4(CC3)Cc3cc(Cl)ccc3O4)c2N1  UniProtKB P32246          nM              32

1: COc1ccc(NC(=O)NC2CC2)c(OC[C@@H](O)CN2CCC3(CC2)Cc2cc(F)ccc2O3)c1
2: O=C(Nc1ccccc1OC[C@@H](O)CN1CCC2(CC1)Cc1cc(Cl)ccc1O2)N1CCCC1
3: Nc1nc2c(OC[C@@H](O)CN3CCC4(CC3)Cc3cc(Cl)ccc3O4)cccc2s1
4: CNC(=O)Nc1ccc(O)cc1OC[C@@H](O)CN1CCC2(CC1)Cc1cc(F)ccc1O2
// query Provide the items ranked by increasing IC50. # respond with the labels, arranged in the requested order
// result 2, 1, 4, 3

I: O=C1COc2cccc(OC[C@@H](O)CN3CCC4(CC3)Cc3cc(Cl)ccc3O4)c2N1
II: NC(=O)Nc1ccc(O)cc1OC[C@@H](O)CN1CCC2(CC1)Cc1cc(Cl)ccc1O2
III: CNC(=O)Nc1ccc(OC)cc1OC[C@@H](O)CN1CCC2(CC1)Cc1cc(F)ccc1O2
// query Provide the items ranked by increasing IC50. # respond with the labels, arranged in the requested order
// result II, I, III

* * *

# System: Hepatocyte
# assayDetails: Metabolic stability in human hepatocytes measured per 10^6 cells
# Format: ADME, cell-based
measure: Stability

In [3]: df
Out[3]:
                                 smilesrepr    measure  reportedresult
0  O=c1ccc2cccc(OC[C@@H](O)CN3CCC4(CC3)Cc3cc(Cl)ccc3O4)c2[nH]1  Stability        Unstable
1  O=C(Nc1ccc(O)cc1OC[C@@H](O)CN1CCC2(CC1)Cc1cc(Cl)ccc1O2)NC1CC1  Stability      6.4 µL/min
2  O=C1CCc2cccc(OC[C@@H](O)CN3CCC4(CC3)Cc3cc(Cl)ccc3O4)c2N1  Stability        Unstable
3  O=C1COc2cccc(OC[C@@H](O)CN3CCC4(CC3)Cc3cc(Cl)ccc3O4)c2N1  Stability      7.8 µL/min
4  NC(=O)Nc1ccccc1OC[C@@H](O)CN1CCC2(CC1)Cc1cc(Cl)ccc1O2  Stability      < 3 µL/min

Let's switch to this compound now.
Quick note, Stability for NC(=O)Nc1ccc(O)cc1OC[C@@H](O)CN1CCC2(CC1)Cc1cc(Cl)ccc1O2 landed at < 3.8 µL/min

* * *

# assayDetails: Metabolic stability in human liver microsomes
# Assay type: ADME
# experimentalSetup: read-out: Stability
measure: microsomal CLint (µL/min/mg)

a: NC(=O)Nc1ccc(F)cc1OC[C@@H](O)CN1CCC2(CC1)Cc1cc(Cl)ccc1O2
b: CNC(=O)Nc1ccc(OC)cc1OC[C@@H](O)CN1CCC2(CC1)Cc1cc(Cl)ccc1O2
// query Form: Entry with minimum microsomal CLint (choose one): a / b Select an item and report its label.
// result a
(a: 17 µL/min/mg, b: 71.2 µL/min/mg)

a: NC(=O)Nc1ccccc1OC[C@@H](O)CN1CCC2(CC1)Cc1cc(Cl)ccc1O2
b: COc1ccc(NC(=O)NC2CC2)c(OC[C@@H](O)CN2CCC3(CC2)Cc2cc(Cl)ccc2O3)c1
// query Form: Entry with minimum microsomal CLint (choose one): a / b Select an item and report its label.
// result a

* * *

# assayDetails: Metabolic stability in human liver microsomes
# Type: ADME
# experimentalSetup: read-out: Stability
measure: microsomal CLint (µL/min/mg)

>>> print(df.to_string())
                                 smilesrepr  reportedresult
0  Cc1cc2c(OC[C@@H](O)CN3CCC4(CC3)Cc3cc(Cl)ccc3O4)cccc2o1              15
1  O=C(Nc1ccc(O)cc1OC[C@@H](O)CN1CCC2(CC1)Cc1cc(F)ccc1O2)NC1CC1            15.1

1: O=c1ccc2cccc(OC[C@@H](O)CN3CCC4(CC3)Cc3cc(Cl)ccc3O4)c2[nH]1
2: O=C1CCc2cccc(OC[C@@H](O)CN3CCC4(CC3)Cc3cc(Cl)ccc3O4)c2N1
3: COc1ccc(NC(=O)NC2CC2)c(OC[C@@H](O)CN2CCC3(CC2)Cc2cc(F)ccc2O3)c1
4: O=C1COc2cccc(OC[C@@H](O)CN3CCC4(CC3)Cc3cc(Cl)ccc3O4)c2N1
// query Provide the items ranked by increasing microsomal CLint. # respond with the labels, arranged in the requested order
// result 1, 4, 2, 3

* * *

# systemName: C-C chemokine receptor type 1 (Rattus norvegicus, UniProt A6I4C9)
# Sequence (A6I4C9 whole entry): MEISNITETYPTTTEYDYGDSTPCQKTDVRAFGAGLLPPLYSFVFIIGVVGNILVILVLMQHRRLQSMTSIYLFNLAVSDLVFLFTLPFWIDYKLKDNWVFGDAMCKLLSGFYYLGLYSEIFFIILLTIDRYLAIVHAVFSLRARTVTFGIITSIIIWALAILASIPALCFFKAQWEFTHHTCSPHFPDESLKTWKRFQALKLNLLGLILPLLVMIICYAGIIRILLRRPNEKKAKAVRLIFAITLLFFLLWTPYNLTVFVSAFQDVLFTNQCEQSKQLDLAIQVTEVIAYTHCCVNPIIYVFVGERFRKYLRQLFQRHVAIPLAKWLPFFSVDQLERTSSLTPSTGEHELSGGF
# assayDetails: Displacement of [125I]MIP-1alpha from rat CCR1
# experimentalSetup: read-out: IC50
pIC50: −log10 of the molar value.
measure: pIC50

# annotated cases, reported pIC50 shown
In [3]: df
Out[3]:
                                 smilesrepr  reportedresult
0  CNC(=O)Nc1ccc(OC)cc1OC[C@@H](O)CN1CCC2(CC1)Cc1cc(F)ccc1O2            5.75
1  O=C(Nc1ccc(O)cc1OC[C@@H](O)CN1CCC2(CC1)Cc1cc(F)ccc1O2)NC1CC1            7.00
2  O=C1COc2cccc(OC[C@@H](O)CN3CCC4(CC3)Cc3cc(Cl)ccc3O4)c2N1            5.90
3  NC(=O)Nc1ccc(O)cc1OC[C@@H](O)CN1CCC2(CC1)Cc1cc(Cl)ccc1O2            5.80

1: CNC(=O)Nc1ccc(OC)cc1OC[C@@H](O)CN1CCC2(CC1)Cc1cc(Cl)ccc1O2
2: NC(=O)Nc1ccc(F)cc1OC[C@@H](O)CN1CCC2(CC1)Cc1cc(Cl)ccc1O2
3: O=C(Nc1ccc(O)cc1OC[C@@H](O)CN1CCC2(CC1)Cc1cc(Cl)ccc1O2)NC1CC1
// query # rank_down: sort by pIC50, max first # respond with the labels, arranged in the requested order
// result 3, 1, 2
(3: 7.30, 1: 6.35, 2: 5.79)

1: COc1ccc(NC(=O)NC2CC2)c(OC[C@@H](O)CN2CCC3(CC2)Cc2cc(Cl)ccc2O3)c1
2: CNC(=O)Nc1ccc(O)cc1OC[C@@H](O)CN1CCC2(CC1)Cc1cc(Cl)ccc1O2
3: COc1ccc(NC(=O)NC2CC2)c(OC[C@@H](O)CN2CCC3(CC2)Cc2cc(F)ccc2O3)c1
4: O=C(Nc1cc(Cl)c(O)cc1OC[C@@H](O)CN1CCC2(CC1)Cc1cc(Cl)ccc1O2)NC1CC1
// query Provide the items ranked by increasing pIC50. # respond with the labels, arranged in the requested order
// result 2, 3, 1, 4
